Target: AEA-DA lipid probe targets in Neuro2a cells (Mus musculus, UniProt O89023)
Sequence (O89023 195-562): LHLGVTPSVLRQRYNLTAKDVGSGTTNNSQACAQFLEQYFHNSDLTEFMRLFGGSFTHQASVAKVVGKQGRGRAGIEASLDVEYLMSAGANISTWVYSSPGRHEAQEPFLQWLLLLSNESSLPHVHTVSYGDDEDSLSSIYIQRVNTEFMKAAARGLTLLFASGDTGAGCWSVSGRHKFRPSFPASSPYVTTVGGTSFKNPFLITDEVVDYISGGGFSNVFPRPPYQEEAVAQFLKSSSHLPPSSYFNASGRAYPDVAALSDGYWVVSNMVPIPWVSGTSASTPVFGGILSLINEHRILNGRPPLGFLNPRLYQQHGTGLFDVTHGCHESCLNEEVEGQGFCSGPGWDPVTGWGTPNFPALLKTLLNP
Conditions: competitor 25 μM
Could you please report measured SILAC ratio Tpp1 for the items listed next?
Number, no unit, nothing else.

Q: Sample O=C(/C=C/c1cccnc1)NCCCCC1CCN(C(=O)c2ccccc2)CC1 [FK-866, reference compound] — what was its SILAC ratio Tpp1?
A: 1.0

Q: Sample CN1CCN(C(=O)c2c(-c3ccccc3)c3cc([N+](=O)[O-])ccc3n2C)CC1 [KML110] — what was its SILAC ratio Tpp1?
A: 1.5

Q: Sample CN1CCN(C(=O)c2[nH]c3ccc([N+](=O)[O-])cc3c2-c2ccccc2)CC1 [MJN228] — what was its SILAC ratio Tpp1?
A: 1.4

Q: Sample C=CCN(C)CCCCCCOc1ccc(C(=O)c2ccc(Br)cc2)c(F)c1 [Ro 48-8071, reference compound] — what was its SILAC ratio Tpp1?
A: 0.8

====

Target: AEA-DA lipid probe targets in Neuro2a cells (Mus musculus, UniProt P16014)
Sequence (P16014 21-677): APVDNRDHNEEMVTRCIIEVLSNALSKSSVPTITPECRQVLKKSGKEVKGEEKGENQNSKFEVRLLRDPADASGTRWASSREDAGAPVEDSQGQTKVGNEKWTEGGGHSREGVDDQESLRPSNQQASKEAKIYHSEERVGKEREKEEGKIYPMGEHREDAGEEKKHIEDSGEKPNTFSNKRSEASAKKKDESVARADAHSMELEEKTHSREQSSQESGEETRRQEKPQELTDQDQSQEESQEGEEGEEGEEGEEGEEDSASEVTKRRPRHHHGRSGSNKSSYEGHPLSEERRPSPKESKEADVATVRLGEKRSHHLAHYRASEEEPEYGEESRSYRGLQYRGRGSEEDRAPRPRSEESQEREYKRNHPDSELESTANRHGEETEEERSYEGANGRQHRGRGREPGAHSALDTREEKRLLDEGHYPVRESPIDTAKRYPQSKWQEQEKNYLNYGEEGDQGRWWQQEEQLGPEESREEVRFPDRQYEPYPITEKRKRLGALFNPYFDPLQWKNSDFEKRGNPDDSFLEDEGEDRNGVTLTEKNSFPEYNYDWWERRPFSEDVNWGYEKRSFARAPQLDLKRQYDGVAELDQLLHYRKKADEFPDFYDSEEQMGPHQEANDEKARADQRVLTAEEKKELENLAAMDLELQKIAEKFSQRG
Details: competitor 25 μM
Could you please report measured SILAC ratio Chgb for the items listed next?
Number, no unit, nothing else.

Q: Sample CN1CCN(C(=O)c2c(-c3ccccc3)c3cc([N+](=O)[O-])ccc3n2C)CC1 [KML110] — what was its SILAC ratio Chgb?
A: 1.1

Q: Sample C=CCN(C)CCCCCCOc1ccc(C(=O)c2ccc(Br)cc2)c(F)c1 [Ro 48-8071, reference compound] — what was its SILAC ratio Chgb?
A: 0.7

Q: Sample O=C(/C=C/c1cccnc1)NCCCCC1CCN(C(=O)c2ccccc2)CC1 [FK-866, reference compound] — what was its SILAC ratio Chgb?
A: 0.9

Q: Sample CN1CCN(C(=O)c2[nH]c3ccc([N+](=O)[O-])cc3c2-c2ccccc2)CC1 [MJN228] — what was its SILAC ratio Chgb?
A: 0.9

====

Target: AEA-DA lipid probe targets in Neuro2a cells (Mus musculus)
Settings: competitor 25 μM
Could you please report measured SILAC ratio, Derl1 for the items listed next?
Number, no unit, nothing else.

Q: Lookup: SILAC ratio, Derl1 / AEA-DA lipid probe targets in Neuro2a cells (Mus musculus) / CN1CCN(C(=O)c2[nH]c3ccc([N+](=O)[O-])cc3c2-c2ccccc2)CC1
A: 1.4

Q: Lookup: SILAC ratio, Derl1 / AEA-DA lipid probe targets in Neuro2a cells (Mus musculus) / CN1CCN(C(=O)c2c(-c3ccccc3)c3cc([N+](=O)[O-])ccc3n2C)CC1
A: 1.2

Q: Lookup: SILAC ratio, Derl1 / AEA-DA lipid probe targets in Neuro2a cells (Mus musculus) / O=C(/C=C/c1cccnc1)NCCCCC1CCN(C(=O)c2ccccc2)CC1 [FK-866, reference compound]
A: 1.3

Q: Lookup: SILAC ratio, Derl1 / AEA-DA lipid probe targets in Neuro2a cells (Mus musculus) / C=CCN(C)CCCCCCOc1ccc(C(=O)c2ccc(Br)cc2)c(F)c1 [Ro 48-8071, reference compound]
A: 1.1

====

Target: AEA-DA lipid probe targets in Neuro2a cells (Mus musculus, UniProt Q8VD00)
Sequence (Q8VD00 whole entry): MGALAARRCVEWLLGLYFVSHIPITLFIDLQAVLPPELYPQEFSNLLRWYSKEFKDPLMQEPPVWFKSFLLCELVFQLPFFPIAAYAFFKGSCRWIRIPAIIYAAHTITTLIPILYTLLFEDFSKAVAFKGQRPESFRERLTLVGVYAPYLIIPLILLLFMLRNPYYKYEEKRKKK
Settings: competitor 25 μM
test-readout: SILAC ratio, Tmem97
Number, no unit, nothing else.

Q: Sample O=C(/C=C/c1cccnc1)NCCCCC1CCN(C(=O)c2ccccc2)CC1 [FK-866, reference compound] — what was its SILAC ratio, Tmem97?
A: 1.0

Q: Sample CN1CCN(C(=O)c2c(-c3ccccc3)c3cc([N+](=O)[O-])ccc3n2C)CC1 [KML110] — what was its SILAC ratio, Tmem97?
A: 1.6

Q: Sample C=CCN(C)CCCCCCOc1ccc(C(=O)c2ccc(Br)cc2)c(F)c1 [Ro 48-8071, reference compound] — what was its SILAC ratio, Tmem97?
A: 10.0

Q: Sample CN1CCN(C(=O)c2[nH]c3ccc([N+](=O)[O-])cc3c2-c2ccccc2)CC1 [MJN228] — what was its SILAC ratio, Tmem97?
A: 1.7

====

Molecular target: AEA-DA lipid probe targets in Neuro2a cells (Mus musculus)
Conditions: competitor 25 μM
Could you please report measured SILAC ratio Mki67ip for the items listed next?
Number, no unit, nothing else.

Q: Lookup: SILAC ratio Mki67ip / AEA-DA lipid probe targets in Neuro2a cells (Mus musculus) / CN1CCN(C(=O)c2c(-c3ccccc3)c3cc([N+](=O)[O-])ccc3n2C)CC1 [KML110]
A: 1.5

Q: Lookup: SILAC ratio Mki67ip / AEA-DA lipid probe targets in Neuro2a cells (Mus musculus) / C=CCN(C)CCCCCCOc1ccc(C(=O)c2ccc(Br)cc2)c(F)c1 [Ro 48-8071, reference compound]
A: 1.0

Q: Lookup: SILAC ratio Mki67ip / AEA-DA lipid probe targets in Neuro2a cells (Mus musculus) / O=C(/C=C/c1cccnc1)NCCCCC1CCN(C(=O)c2ccccc2)CC1 [FK-866, reference compound]
A: 1.0

Q: Lookup: SILAC ratio Mki67ip / AEA-DA lipid probe targets in Neuro2a cells (Mus musculus) / CN1CCN(C(=O)c2[nH]c3ccc([N+](=O)[O-])cc3c2-c2ccccc2)CC1 [MJN228]
A: 1.5

====

Target: AEA-DA lipid probe targets in Neuro2a cells (Mus musculus, UniProt Q5XKN4)
Sequence (Q5XKN4 whole entry): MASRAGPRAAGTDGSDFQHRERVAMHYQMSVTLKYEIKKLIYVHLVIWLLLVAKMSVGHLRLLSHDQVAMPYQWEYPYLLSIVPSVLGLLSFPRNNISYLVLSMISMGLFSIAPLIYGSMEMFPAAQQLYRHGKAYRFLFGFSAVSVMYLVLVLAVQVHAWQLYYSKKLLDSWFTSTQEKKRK
Conditions: competitor 25 μM
test-readout: SILAC ratio, Jagn1
Number, no unit, nothing else.

Q: Lookup: SILAC ratio, Jagn1 / AEA-DA lipid probe targets in Neuro2a cells (Mus musculus, UniProt Q5XKN4) / CN1CCN(C(=O)c2c(-c3ccccc3)c3cc([N+](=O)[O-])ccc3n2C)CC1
A: 1.5

Q: Lookup: SILAC ratio, Jagn1 / AEA-DA lipid probe targets in Neuro2a cells (Mus musculus, UniProt Q5XKN4) / O=C(/C=C/c1cccnc1)NCCCCC1CCN(C(=O)c2ccccc2)CC1 [FK-866, reference compound]
A: 1.1

Q: Lookup: SILAC ratio, Jagn1 / AEA-DA lipid probe targets in Neuro2a cells (Mus musculus, UniProt Q5XKN4) / CN1CCN(C(=O)c2[nH]c3ccc([N+](=O)[O-])cc3c2-c2ccccc2)CC1
A: 1.4

Q: Lookup: SILAC ratio, Jagn1 / AEA-DA lipid probe targets in Neuro2a cells (Mus musculus, UniProt Q5XKN4) / C=CCN(C)CCCCCCOc1ccc(C(=O)c2ccc(Br)cc2)c(F)c1 [Ro 48-8071, reference compound]
A: 1.0

====

Target: AEA-DA lipid probe targets in Neuro2a cells (Mus musculus, UniProt P09103)
Sequence (P09103 20-509): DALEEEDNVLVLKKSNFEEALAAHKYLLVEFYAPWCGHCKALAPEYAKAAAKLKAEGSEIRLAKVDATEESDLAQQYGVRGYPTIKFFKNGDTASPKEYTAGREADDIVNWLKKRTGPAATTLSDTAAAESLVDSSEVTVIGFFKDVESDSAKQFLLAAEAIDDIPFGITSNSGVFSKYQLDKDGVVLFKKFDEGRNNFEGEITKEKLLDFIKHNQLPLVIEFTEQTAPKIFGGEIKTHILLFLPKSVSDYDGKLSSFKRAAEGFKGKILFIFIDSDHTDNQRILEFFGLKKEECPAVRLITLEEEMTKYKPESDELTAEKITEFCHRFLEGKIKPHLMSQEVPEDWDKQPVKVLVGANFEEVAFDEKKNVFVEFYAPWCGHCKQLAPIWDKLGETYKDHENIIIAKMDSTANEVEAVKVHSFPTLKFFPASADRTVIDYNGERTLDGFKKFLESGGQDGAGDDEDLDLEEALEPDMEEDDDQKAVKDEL
Conditions: competitor 25 μM
test-readout: SILAC ratio P4hb
Number, no unit, nothing else.

Q: Sample C=CCN(C)CCCCCCOc1ccc(C(=O)c2ccc(Br)cc2)c(F)c1 [Ro 48-8071, reference compound] — what was its SILAC ratio P4hb?
A: 1.0

Q: Sample CN1CCN(C(=O)c2[nH]c3ccc([N+](=O)[O-])cc3c2-c2ccccc2)CC1 — what was its SILAC ratio P4hb?
A: 1.5

Q: Sample CN1CCN(C(=O)c2c(-c3ccccc3)c3cc([N+](=O)[O-])ccc3n2C)CC1 — what was its SILAC ratio P4hb?
A: 1.8

Q: Sample O=C(/C=C/c1cccnc1)NCCCCC1CCN(C(=O)c2ccccc2)CC1 [FK-866, reference compound] — what was its SILAC ratio P4hb?
A: 1.4

====

Biological target: AEA-DA lipid probe targets in Neuro2a cells (Mus musculus)
Settings: competitor 25 μM
test-readout: SILAC ratio Abcd3
Number, no unit, nothing else.

Q: Sample CN1CCN(C(=O)c2c(-c3ccccc3)c3cc([N+](=O)[O-])ccc3n2C)CC1 — what was its SILAC ratio Abcd3?
A: 1.2

Q: Sample O=C(/C=C/c1cccnc1)NCCCCC1CCN(C(=O)c2ccccc2)CC1 [FK-866, reference compound] — what was its SILAC ratio Abcd3?
A: 1.3

Q: Sample C=CCN(C)CCCCCCOc1ccc(C(=O)c2ccc(Br)cc2)c(F)c1 [Ro 48-8071, reference compound] — what was its SILAC ratio Abcd3?
A: 0.9

Q: Sample CN1CCN(C(=O)c2[nH]c3ccc([N+](=O)[O-])cc3c2-c2ccccc2)CC1 — what was its SILAC ratio Abcd3?
A: 1.5

meta.source: patent US10168342B2
